assay: blood-stage malaria parasite viability loss – strain 3D7, DAPI fluorescence, 100 nL, primary screen (AID 1184);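 further: parasites grown inside human red blood cells in medium with human serum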; conditions: P. falciparum 3D7 growth, 3 d, higher = more signal
Param threshold (-2) applies to z-score; output 1 when value >= threshold, 0 when value < threshold.

COC(=O)[C@@]1(Cc2ccc(OC)cc2)[C@H]2c3cc(C(=O)N4CCCC4)n(Cc4ccc(C)o4)c3C[C@H]2CN1C(=O)c1ccccc1
1
C=CCOc1ccc([C@@H]2CC=C(C(=O)OCC)[C@H](c3cccc(Br)c3)N2S(=O)(=O)c2ccc(C)cc2)cc1
1
Cc1ccc(F)cc1S(=O)(=O)N[C@@H]1CCN(C(=O)c2ccc(OC(C)C)cc2)C1
1
COc1ccccc1CN1C(=O)c2ccccc2[C@](Cc2ccccc2I)(C(=O)NCCN2CCOCC2)[C@@H]1c1ccc(CO)cc1
0
COCCOC(=O)N1C(=O)[C@@]2(c3cc(C#Cc4ccc(OC)cc4)ccc31)[C@H](C(N)=O)[C@H]1C(=O)O[C@H](c3ccccc3)[C@H](c3ccccc3)N1[C@@H]2c1ccc(OCCO)cc1
0
Cc1ccc(S[C@]2(C(=O)NCCN3CCOCC3)CC(=O)N(C3Cc4ccccc4C3)[C@@H]2c2ccc(CO)cc2)cc1
1
O=C1OCC=C[C@H]2OC34C=CCN(CCN5CCOCC5)C(=O)[C@H]3N(CCCCCO)C(=O)[C@@H]4[C@@H]12 (some centres not stated)
1
